Tested on: Enterococcus faecium
Experiment: Inhibition of purified Enterococcus faecium D359 His-tagged Aslfm assessed as residual activity preincubated at 100 uM for 2 mins prior to reaction initiation measured after 10 mins by UV/VIS spectrophotometry
Assignment: determine reported Activity for the given compounds.
Give bare numbers, in %.

Reference set, count: 5
Nc1nc(NCc2ccc(F)cc2F)c2cn[nH]c2n1	93
Cc1ccc(F)c(CNc2nc(N)nc3[nH]ncc23)c1F	79
CN(C(=O)Cn1c(-c2nonc2N)nc2ccccc21)c1ccccc1	116
Cc1ccc(-n2nnnc2-c2cn[nH]c2-c2cccc(C)c2)cc1	92
Nc1nc(NCc2ccc(Cl)c(Cl)c2)c2nc[nH]c2n1	83

Quick batch: Activity for everything below.
1. Nc1nc(NCc2ccc(Cl)s2)c2cn[nH]c2n1
2. Nc1nc(NCc2ccc(Cl)cc2Cl)c2nc[nH]c2n1
3. c1ccc(CN(Cc2ccccc2)c2ncnc3[nH]cnc23)cc1
4. OC(c1ccccc1)(c1ccccc1)c1c[nH]cn1
5. Nc1ncc(C(=O)N(Cc2cc(Br)cc(Br)c2)Cc2ccc3[nH]ccc3c2)o1
6. O=C(c1ccc(O)nc1)N(Cc1ccco1)Cc1cccs1
7. Nc1nc(SCc2c(Cl)cccc2Cl)c2nc[nH]c2n1
8. Nc1nc(NCc2ccc3c(c2)OCO3)c2nc[nH]c2n1

1: 74; 2: 85; 3: 83; 4: 100; 5: 44; 6: 93; 7: 47; 8: 84

Quick batch: Activity for everything below.
1. Nc1nc(NCc2c(F)cccc2F)c2cn[nH]c2n1
2. Nc1nnc(P(=O)(c2ccccc2)c2ccccc2)s1
3. Nc1nc(NCc2cccc(Cl)c2Cl)c2cn[nH]c2n1
4. Nc1nc(NCc2ccc(Cl)cc2Cl)c2cn[nH]c2n1
5. Nc1nc(NCc2c(F)cccc2Cl)c2cn[nH]c2n1
6. CS(=O)(=O)Nc1nc(CC(=O)N(Cc2cccs2)Cc2cccs2)cs1

1: 88; 2: 95; 3: 86; 4: 69; 5: 84; 6: 91

Quick batch: Activity for everything below.
1. Nc1nonc1-c1nc2ccccc2n1CC(=O)Nc1ccccc1
2. Nc1ncc(-c2nnnn2-c2ccccc2)c(-c2ccccc2)n1
3. Nc1nc(NCc2cccnc2Cl)c2cn[nH]c2n1
4. Nc1nc(SCc2ccc(Cl)cc2Cl)c2nc[nH]c2n1
5. COc1ccc(CNc2nc(N)nc3[nH]cnc23)c(OC)c1
6. O=C(c1cnc(O)cn1)N(Cc1cccs1)CC1CCCO1 (stereo not given)

1. 89
2. 92
3. 87
4. 71
5. 89
6. 93

----------
Experiment: Inhibition of purified Enterococcus faecium D359 His-tagged Aslfm preincubated for 2 mins prior to reaction initiation measured after 10 mins by UV/VIS spectrophotometry
Assignment: determine reported pKi for the given compounds.
One number for each entry, as −log10 of the molar value.

Reference set, count: 4
Nc1ncc(C(=O)N(Cc2cc(Br)cc(Br)c2)Cc2ccc3[nH]ccc3c2)o1	5.54
Nc1nc(SCc2ccc(Cl)cc2Cl)c2nc[nH]c2n1	4.46
Nc1ncc(C(=O)N(Cc2ccccc2)Cc2ccccc2)o1	4.36
Nc1nc(SCc2c(Cl)cccc2Cl)c2nc[nH]c2n1	5.49

Continue with the compound presented below.
pKi in this record for `Nc1nc(NCc2ccc(Cl)cc2Cl)c2cn[nH]c2n1` : 4.66

----------
Assignment: determine reported Activity for the given compounds.
Test system: Enterococcus faecium
Assay: Inhibition of purified Enterococcus faecium D359 His-tagged Aslfm assessed as residual activity preincubated at 250 uM for 2 mins prior to reaction initiation measured after 10 mins by UV/VIS spectrophotometry

Reference set, count: 8
Cc1nc(N)sc1C(=O)N(Cc1ccccc1)Cc1ccccc1	82%
CCN(Cc1ccncc1)C(=O)c1cnc(N)o1	98%
CCCCN(CCCC)C(=O)c1cnc(N)o1	94%
Nc1ncc(C(=O)N(Cc2ccccc2)Cc2ccccc2)o1	43%
Nc1ncc(C(=O)Nc2nc3ccccc3[nH]2)o1	90%
Nc1ncc(C(=O)N(Cc2ccccn2)Cc2ccccn2)o1	74%
CCCCN(Cc1ccccc1)C(=O)c1cnc(N)o1	75%
Nc1ncc(C(=O)NCc2ccc3[nH]ccc3c2)o1	79%

Continue with the compound presented below.
Readout Activity for `Nc1ncc(C(=O)N(Cc2ccccc2)Cc2ccccc2)s1` , test system Enterococcus faecium, was 80%
